- Tested on: K562 cells
- test method notes: Cell viability assay (CellTiter-Glo)
- Format: cell-based
- recorded conditions: Homo sapiens, read-out: IC50 cell proliferation
reported metric: IC50

input_smiles=Cc1cc(O)nc2sc(C(=O)c3ccccc3)c(N)c12 data_value="< 100 µM"

---

- test target: human thymidylate synthase (TS) (Homo sapiens)
- Construct: screening in live, non-engineered cells expressing thymidylate synthase; endogenous in cells; host or cells: K562 (human myelogenous leukemia) cells
- Sequence (P04818 2-313 limits assumed): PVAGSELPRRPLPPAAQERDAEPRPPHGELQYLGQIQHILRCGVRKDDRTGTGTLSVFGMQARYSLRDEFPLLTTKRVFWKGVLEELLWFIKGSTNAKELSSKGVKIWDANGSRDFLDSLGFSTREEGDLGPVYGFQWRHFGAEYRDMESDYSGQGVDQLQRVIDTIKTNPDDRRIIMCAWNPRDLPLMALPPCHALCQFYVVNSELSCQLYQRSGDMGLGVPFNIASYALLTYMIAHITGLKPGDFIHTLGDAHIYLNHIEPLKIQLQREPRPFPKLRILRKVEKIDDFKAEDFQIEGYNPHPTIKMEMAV
- test method notes: ITDRF CETSA at 50 °C, AlphaScreen detection, live K562 cells
- Type: cell-based
- recorded conditions: 2 h preincubation, 50 °C for 3 min, read-out: […] EC50 (half-maximal stabilization of TS)
pEC50: −log10 of the molar value.
reported metric: pEC50

compound="O=c1[nH]c(=O)n([C@@H]2O[C@H](CO)[C@@H](O)[C@H]2O)cc1F [5-fluorouridine]" test_target="human thymidylate synthase (TS) (Homo sapiens)" reported_metric=pEC50 data_value=7.33

Source of measurements: paper PMC4820820
